These data points were gathered from the supplement of paper PMC6755084.

B1: F1*; the commonest letter at each place (parent)
chain: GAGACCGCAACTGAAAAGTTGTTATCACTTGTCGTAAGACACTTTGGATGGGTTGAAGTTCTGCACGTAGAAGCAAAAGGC

- Variants of: B1
- Experiment summary: fraction ligated after 30 min (ligated reads / total reads); higher = more ligase activity
- Measurement parameters: with F1*sub RNA substrate (template-directed ligation), 42 °C
Each entry gets false if its fraction ligated stays under 0.8, and true if its fraction ligated is 0.8 or above.

Solved entries (count: 6):
>  <Seq>
GAGACCGCAACTGAAAAGTTGTTATCACATGTCGTCAGACACTTTGGATGGGTTGAAGTTCTGCACGTAGAAGCAAAAGGC [T29A A36C]

>  <Qualitative label>
true

$$$$
>  <Seq>
GAGACCGCAACTGAAAAGTTGTTATCACTTGTCGTAAGACACTTTAGATGGGTTCAAGTTCTGCACGTAGAAGCAAAAGGC [G46A G55C]

>  <Qualitative label>
false

$$$$
>  <Seq>
GAGACCGCAACTGAAAAGTTGTTATCACTTGTCGTAAGACACTTTGGATGGGTTGCAGTTCTGCACGTAGAAGCAAAAGGC [A56C]

>  <Qualitative label>
false

$$$$
>  <Seq>
GAGACCGCAACTGAAAAGTTGTTATCACTTGCCGTAAGACTCTTTGGATGGGTTGAAGTTCTGCACGTAGAAGCAAAAGGC [T32C A41T]

>  <Qualitative label>
false

$$$$
>  <Seq>
GAGACCGCAACTGAAAAGTTGTTATCACTTGTCGTAAAACACTTTGGATAGGTTGAAGTTCTGCACGTAGAAGCAAAAGGC [G38A G50A]

>  <Qualitative label>
false

$$$$
>  <Seq>
GAGACCGCAACTGAAAAGTTGTTATCACTTGACGTAAGACACTTTGGATGGGTTTAAGTTCTGCACGTAGAAGCAAAAGGC [T32A G55T]

>  <Qualitative label>
true

$$$$

Task: Record GAGACCGCAACTGAAAAGTTGTTATCACTTGTCGTAAGACACTTTGGGAGGGTTGAAGTTCTGCACGTAGAAGCAAAAGGC [A48G T49A] ; criterion: fraction ligated no lower than 0.8. Met?
Output: false

Task: Record GAGACCGCAACTGAAAAGTTGTTATCACATGTCGTAAGACACTTTGGACGGGTTGAAGTTCTGCACGTAGAAGCAAAAGGC [T29A T49C] ; criterion: fraction ligated no lower than 0.8. Met?
Output: false
